Test system: isolated rat liver mitochondria
Assay: Oxygen consumption, Clark-type oxygen electrode
Type: biochemical
Details: 0.16 µM
quantity-name: II-ADP, % of control (O2 consumption rate)

# molecule, measured-value
measured = [
    ("CC[C@@H](C(=O)[C@@H](C)[C@@H](O)[C@H](C)CCc1ccc(C)c(O)c1C(=O)O)[C@H]1O[C@](CC)([C@H]2CC[C@](O)(CC)[C@H](C)O2)C[C@@H]1C [Lasalocid sodium, reference compound]", "72 (43.1) % of control"),
    ("CCOCn1c(-c2ccc(Cl)cc2)c(C#N)c(Br)c1C(F)(F)F", "112 (75.7) % of control"),
    ("O=C1c2ccccc2C(=O)C1C(=O)C(c1ccccc1)c1ccc(Cl)cc1 (centres unmarked)", "97 (66.0) % of control"),
    ("O=C(Nc1ccc(Oc2ccc(Cl)cc2)c(Cl)c1)c1cc(I)cc(I)c1O [Rafoxanide, reference compound]", "63 (47.1) % of control"),
    ("CCCCCC[C@H]1C(=O)O[C@H](C)[C@H](NC(=O)c2cccc(NC=O)c2O)C(=O)O[C@@H](C)[C@@H]1OC(=O)CC(C)C [Antimycin A, reference compound]", "10 (6.4) % of control"),
]

###

Tested on: HeLa cells expressing YFP-Parkin
Assay: Parkin translocation assay
Format: cell-based, human
quantity-name: Parkin recruitment

# compound, measured-value
records = [
    ("CC[C@@H](C(=O)[C@@H](C)[C@@H](O)[C@H](C)CCc1ccc(C)c(O)c1C(=O)O)[C@H]1O[C@](CC)([C@H]2CC[C@](O)(CC)[C@H](C)O2)C[C@@H]1C [Lasalocid sodium, reference compound]", "Inactive"),
    ("O=C(Nc1ccc(Cl)cc1)Nc1ccc(Cl)c(Cl)c1", "Active"),
    ("O=C(Nc1ccc([N+](=O)[O-])cc1Cl)c1cc(Cl)ccc1O [Niclosamide, reference compound]", "Active"),
    ("O=C1c2ccccc2C(=O)C1C(=O)C(c1ccccc1)c1ccc(Cl)cc1 (stereo not shown)", "Inactive"),
    ("CCC(C)c1cc([N+](=O)[O-])cc([N+](=O)[O-])c1O (stereo not shown)", "Active"),
    ("CCOCn1c(-c2ccc(Cl)cc2)c(C#N)c(Br)c1C(F)(F)F", "Active"),
    ("O=C(Nc1ccccc1)Nc1cnns1", "Inactive"),
    ("O=C1c2c(O)ccc([N+](=O)[O-])c2C(=O)c2c([N+](=O)[O-])ccc(O)c21 [1,8-Dihydroxy-4,5-dinitroanthraquinone]", "Inactive"),
    ("O=C(Nc1ccc(Oc2ccc(Cl)cc2)c(Cl)c1)c1cc(I)cc(I)c1O [Rafoxanide, reference compound]", "Active"),
    ("CCCCCC[C@H]1C(=O)O[C@H](C)[C@H](NC(=O)c2cccc(NC=O)c2O)C(=O)O[C@@H](C)[C@@H]1OC(=O)CC(C)C [Antimycin A, reference compound]", "Active"),
]

###

System: HepG2 cells
Experiment: cells
Details: Homo sapiens, HepG2, read-out: MMP assays IC50 (µM) HepG2
quantity-name: log10 of IC50 (log10 of the value in µM)

# compound, measured-value
measured = [
    ("O=c1c(-c2ccccc2)c1-c1ccccc1", 1.44),
    ("CC(C)C[C@H]1C(=O)N2CCC[C@H]2[C@]2(O)O[C@](NC(=O)[C@@H]3C=C4c5cccc6[nH]c(Br)c(c56)C[C@H]4N(C)C3)(C(C)C)C(=O)N12", 1.34),
    ("COP(=S)(OC)Oc1c(Cl)cc(C)cc1Cl", 1.60),
    ("CCC(C)(C)c1ccc(O)cc1", 1.55),
    ("CCCOC(=O)c1ccc(O)cc1", 1.55),
    ("Cc1cc(O)c(Cl)c(C)c1Cl", 0.95),
    ("Oc1ccc(Cl)c(Cl)c1Cl", 0.90),
    ("CC(=O)Oc1ccccc1C(=O)Nc1ncc([N+](=O)[O-])s1 [Nitazoxanide]", 0.10),
    ("CCC(C)c1cc([N+](=O)[O-])cc([N+](=O)[O-])c1OC(=O)OC(C)C (centres unmarked)", 0.90),
    ("COP(=S)(OC)Oc1cc(Cl)c(Br)cc1Cl", 0.95),
    ("CC(C)(C)c1ccc(OC(=O)c2ccccc2O)cc1 [4-tert-Butylphenyl salicylate]", 1.55),
    ("CC(C)=CCOc1ccc(/C=C/C(=O)c2ccc(OCC=C(C)C)cc2OCC(=O)O)cc1", 1.24),
    ("CCC(C)c1ccccc1O (centres unmarked)", 1.40),
    ("O=[N+]([O-])c1ccc(Nc2ccccc2)cc1", 0.95),
    ("CCc1ccc(O)c(C(C)(C)C)c1", 1.20),
    ("CCCCC(CC)CN1C(=O)C2C3C=CC(C3)C2C1=O (centres unmarked)", 1.45),
    ("Nc1ccc(/N=N/c2ccc(N)cc2)cc1", 0.75),
    ("C[C@@]12C(=O)OC(=O)[C@]1(C)[C@H]1CC[C@@H]2O1", -0.92),
    ("CC1(C(=O)Nc2ccc(O)c(Cl)c2Cl)CCCCC1", 1.25),
    ("Clc1ccc(Sc2cc(Cl)c(Cl)cc2Cl)cc1", 0.40),
]
